system: DU-145 prostate; assay: NCI-60 one-dose screen, 48 h; settings: 10 µM
The panel holds about 83,000 compounds, 20% with a hit somewhere; the sample as a whole holds those more often. Active and inactive are the calls of the source. The calls were made as follows: active = growth percent below 10; inactive = the rest.
Outcome codes: y (active), n (inactive)

{"columns": ["molecule", "target.or.system", "assigned.class"],
 "data": [
  ["Cc1ccc(S(=O)(=O)N(C)CCCCCC(=O)O)cc1", "DU-145 prostate", "n"],
  ["C1CN(CC2CCC(CN3CCOCC3)O2)CCO1 (centres undefined)", "DU-145 prostate", "n"],
  ["Cc1c2cnccc2c(C)c2c1oc1ccccc12", "DU-145 prostate", "n"],
  ["CN1C(=O)C2(Nc3cc(Cl)ccc3S2)c2cc(Cl)ccc21 (centres undefined)", "DU-145 prostate", "n"],
  ["O=C(/C=C/C=C/c1c(C2CC2)nc2ccccc2c1-c1ccc(F)cc1)c1cccs1", "DU-145 prostate", "n"],
  ["CC(=O)OC1CC2C(C)(C)CCC[C@]2(C)C2=C1C(O)=C(C(C)C)C(=O)C2=O (some centres undefined)", "DU-145 prostate", "y"],
  ["CCCN(CCC)C(=O)[C@H](CC)[C@@H]1CC[C@@H](C)[C@@H]([C@H](C)[C@@H](O)[C@@H](C)C(=O)[C@H](CC)C2O[C@]3(C=C[C@@H](O)[C@]4(CC[C@@](C)([C@H]5CC[C@](O)(CC)[C@H](C)O5)O4)O3)[C@H](C)C[C@@H]2C)O1 (some centres undefined)", "DU-145 prostate", "n"],
  ["COC(=O)c1cc2oc(/C=C3/SC(=S)N(N)C3=O)cc2n1Cc1ccccc1", "DU-145 prostate", "n"],
  ["CCOS(=O)(=O)c1c(C(C)C)cc(C(C)C)cc1C(C)C", "DU-145 prostate", "n"]
]}

---

system: NCI-H460 lung; test: NCI-60 one-dose screen, 48 h (100 = growth as untreated, 0 = no growth, -100 = all killed); details: 10 µM
Compounds without any hit were thinned out: in the full panel of roughly 83,000, 20% have a hit.
readout.kind: growth (%)

{"columns": ["compound", "units", "reported.measurement"],
 "data": [
  ["CCC(CC)n1c(C)cc(=O)n1C(CC)CC", "%", 103],
  ["COc1cc(C2CC(c3ccccc3)=NN2C(C)=O)cc(OC)c1OC (stereo not given)", "%", 15.5],
  ["CCn1c2ccc(O)cc2c2c(C)c3c[n+](C)ccc3c(C)c21", "%", 7.28],
  ["CNC(=O)c1cc(Oc2ccc3c(c2)sc2nc(-c4ccc(NC(=O)Nc5ccc(Cl)c(C(F)(F)F)c5)cc4)cn23)ccn1", "%", 92.5],
  ["CC1=CC2C(C(O)CC3(C)C2CC(C)C32OCOC23COCO3)C2(C)C/C(=C/O)C(=O)C=C12 (stereo not given)", "%", 7.96],
  ["O=C(Nc1nc(-c2ccccc2)nc2c1sc(=S)n2-c1ccccc1)C(F)(F)F", "%", 99.3],
  ["CC(C)(C)c1ccc(S(=O)(=O)Oc2ccc(NC(=O)C3CCCCC3)cc2)cc1", "%", 44.2],
  ["COc1ccc(-c2nn(-c3cccc(Cl)c3)cc2/C=C2\\NC(=S)N(c3ccc(Cl)cc3)C2=O)cc1", "%", 11],
  ["O=C(CCCCCCC(=O)Nc1ccccc1)NO", "%", 16.3],
  ["O=S(=O)(Oc1ccc(-c2ccc3sccc3c2)cc1)c1ccc(F)cc1", "%", 103]
]}
